All values here come from ChEMBL document CHEMBL3433997.

Biological target: Glucose transporter (Leishmania mexicana) (UniProt O61059)
Assay: ST_JUDE_LEISH: Cytotoxicity at 2uM final concentration against transgenic Leishmania Mexicana promastigotes LmGT2 that are glucose transport deficient and complemented with the L. Mexicana glucose transporter 2. Activity is measured by DNA content using SYBR green in vitro
Type: functional
As shown below, each of these compounds has a reported inhibition value.
VALUE KIND: inhibition (%)

INSERT INTO measurements (compound, tgt, reading_unit, recorded_number) VALUES
  ('O=C(CN1CCN(C(C(=O)Nc2cc(C(F)(F)F)ccc2Cl)c2ccccc2)CC1)NC1CC1 (configuration not stated)', 'Glucose transporter (Leishmania mexicana) (UniProt O61059)', '%', 3.2),
  ('CC(C)(C(=O)Nc1ccc(C2CCC(NCC3CC3)CC2)c(Cl)c1)c1ccc(C(F)(F)F)cc1 (configuration not stated)', 'Glucose transporter (Leishmania mexicana) (UniProt O61059)', '%', -0.91),
  ('COc1ccc2cc(-c3nc(-c4c(Cl)cccc4Cl)[nH]c3-c3ccnc(NCCCN4CCN(C)CC4)c3)ccc2c1', 'Glucose transporter (Leishmania mexicana) (UniProt O61059)', '%', -5.14),
  ('Cc1[nH]c(C)c(-c2ccc(Oc3ccc(O)cc3)cc2)c(=O)c1Cl', 'Glucose transporter (Leishmania mexicana) (UniProt O61059)', '%', -5.02),
  ('COc1ccc2c(c1)CCN(CCN1CCC(CNC(=O)c3ccc(-c4ccc(C#N)cc4)cc3)CC1)C2', 'Glucose transporter (Leishmania mexicana) (UniProt O61059)', '%', 2.22),
  ('OC(CNCc1cccc(Oc2ccc(Cl)cc2)c1)c1cccc(C(F)(F)F)c1 (configuration not stated)', 'Glucose transporter (Leishmania mexicana) (UniProt O61059)', '%', -0.71),
  ('COc1ccc(Cl)cc1C(=O)Nc1ccc(-c2nc3ccccc3[nH]2)cc1', 'Glucose transporter (Leishmania mexicana) (UniProt O61059)', '%', 1.35),
  ('Cc1cccc2nc(-c3cccc(-c4ccc(NC(=O)C(C)CN5CCN(C)CC5)cc4)c3)[nH]c12 (configuration not stated)', 'Glucose transporter (Leishmania mexicana) (UniProt O61059)', '%', 3.85),
  ('Cc1[nH]c(C)c(-c2ccc(-c3cccc(Cl)c3)nc2)c(=O)c1Br', 'Glucose transporter (Leishmania mexicana) (UniProt O61059)', '%', 0.63),
  ('CC(CN(C)C)C(=O)Nc1cccc(-c2ccc(-c3nc4cc(F)ccc4[nH]3)s2)c1 (configuration not stated)', 'Glucose transporter (Leishmania mexicana) (UniProt O61059)', '%', 4.47),
  ('COc1cccc(CNCC(C)(C)c2nc(-c3ccc(Cl)c(O)c3)c(-c3ccncc3)[nH]2)c1', 'Glucose transporter (Leishmania mexicana) (UniProt O61059)', '%', 2.87),
  ('COc1ccc(N2CCN(CCCCNC(=O)c3ccc(NC(=O)c4ccc(Cl)cc4)cc3)CC2)c(C)c1', 'Glucose transporter (Leishmania mexicana) (UniProt O61059)', '%', 9.07);
